biological target: Fibroblast growth factor 10 (Homo sapiens); test: FGF10 binders on small-molecule microarrays, primary screen, biochemical, small-molecule microarray, 635 nm fluorescence (AID 1102); details: FGF10 binding, fluorescence 635 nm, higher = more signal
attributeMeasured: composite z-score
Answer with a bare number; do not write a unit.

>  <compound>
O=C1C[C@@](C(=O)NCCN2CCOCC2)(c2ccc([N+](=O)[O-])cc2)[C@@H](c2ccc(CO)cc2I)N1CC12CC3CC(CC(C3)C1)C2

>  <composite z-score>
1.33

$$$$
>  <compound>
COc1ccc(C#Cc2ccc3c(c2)[C@]2(C(=O)N3)[C@H](C(=O)Nc3nc4ccccc4s3)[C@H]3C(=O)O[C@H](c4ccccc4)[C@H](c4ccccc4)N3[C@@H]2c2ccc(O)cc2)cc1

>  <composite z-score>
1.43

$$$$
>  <compound>
C=C(C)[C@@H]1CC=C(C(O)C2C=CC3C(=O)N(c4ccccc4)C(=O)C3N2Nc2ccccc2)CC1 (some centres undefined)

>  <composite z-score>
0.852

$$$$

Query: composite z-score; subject: `CC(C)N1C(=O)[C@@]2(Cc3ccccc31)c1ccccc1C(=O)N(Cc1ccccc1Cl)[C@H]2c1ccc(CO)cc1`
-1

Query: composite z-score; subject: `COCCOC(=O)N1C(=O)[C@@]2(c3ccccc31)[C@H](c1ccccc1OCCO)N1[C@H](c3ccccc3)[C@H](c3ccccc3)OC(=O)[C@H]1[C@@H]2C(=O)N1CCN(c2ncccn2)CC1`
0.357

Query: composite z-score; subject: CN1C(=O)C2C=CC(C(O)c3ccc([N+](=O)[O-])cc3)N(N3CCCCC3)C2C1=O (centres undefined)
0.941

Query: composite z-score; subject: CC(C)C(O)C1C=CC2C(=O)NC(=O)C2N1Nc1ccc(Cl)cc1Cl (centres undefined)
-0.0826

Query: composite z-score; subject: C=CCC(OC(C)=O)[C@@H]1[C@@H](N(Cc2ccc(-c3ccccc3)cc2)C(=O)c2ccc(-c3ccccc3)cc2)c2cc(OCCCO)ccc2N1C(=O)Cc1ccc2ccccc2c1 (some centres undefined)
-0.133

Query: composite z-score; subject: `CCCC[C@@H]1C[C@H]1[C@@H](NC(=O)c1ccco1)c1ccc(-c2ccccc2)cc1`
0.222

###

target: Epidermal growth factor receptor (Homo sapiens) (UniProt P00533); experiment: EGFR binders on small-molecule microarrays, primary screen, biochemical, small-molecule microarray, 635 nm fluorescence (AID 1104); conditions: EGFR binding, higher = more signal;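 also: score merges 667 nm emission intensity with spot signal to noise over triplicate slides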
Sequence (P00533 whole entry, looked up): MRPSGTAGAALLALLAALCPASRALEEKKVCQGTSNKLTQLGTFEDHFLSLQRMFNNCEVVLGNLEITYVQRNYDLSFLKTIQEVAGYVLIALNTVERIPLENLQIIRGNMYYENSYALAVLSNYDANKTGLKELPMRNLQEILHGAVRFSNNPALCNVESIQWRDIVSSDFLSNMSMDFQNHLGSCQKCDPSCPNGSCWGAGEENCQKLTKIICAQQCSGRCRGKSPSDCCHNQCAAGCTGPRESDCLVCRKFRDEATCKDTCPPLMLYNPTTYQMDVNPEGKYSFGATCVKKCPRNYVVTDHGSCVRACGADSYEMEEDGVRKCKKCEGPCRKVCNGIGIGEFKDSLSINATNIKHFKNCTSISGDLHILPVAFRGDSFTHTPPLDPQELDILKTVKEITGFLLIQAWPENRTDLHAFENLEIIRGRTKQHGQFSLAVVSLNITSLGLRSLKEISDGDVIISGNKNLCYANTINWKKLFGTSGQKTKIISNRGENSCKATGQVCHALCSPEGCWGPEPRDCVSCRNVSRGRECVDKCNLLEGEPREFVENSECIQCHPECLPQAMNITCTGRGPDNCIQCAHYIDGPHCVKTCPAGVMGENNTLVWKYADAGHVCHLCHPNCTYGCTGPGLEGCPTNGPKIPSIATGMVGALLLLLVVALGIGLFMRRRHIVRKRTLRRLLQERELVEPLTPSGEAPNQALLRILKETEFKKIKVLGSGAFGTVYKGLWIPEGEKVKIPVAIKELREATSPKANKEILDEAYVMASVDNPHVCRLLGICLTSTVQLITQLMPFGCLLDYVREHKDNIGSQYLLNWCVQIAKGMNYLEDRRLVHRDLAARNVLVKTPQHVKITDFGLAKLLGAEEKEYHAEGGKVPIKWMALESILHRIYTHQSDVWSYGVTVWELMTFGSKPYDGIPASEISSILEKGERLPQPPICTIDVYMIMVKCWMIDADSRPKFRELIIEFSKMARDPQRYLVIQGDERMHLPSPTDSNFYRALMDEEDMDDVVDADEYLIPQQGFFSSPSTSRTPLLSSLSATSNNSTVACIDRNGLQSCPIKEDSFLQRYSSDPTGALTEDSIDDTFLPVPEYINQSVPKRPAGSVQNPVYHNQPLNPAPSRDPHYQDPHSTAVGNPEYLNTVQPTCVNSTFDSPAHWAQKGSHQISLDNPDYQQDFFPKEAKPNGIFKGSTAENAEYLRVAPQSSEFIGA
Param threshold (0.1) applies to composite z-score; output criterion met when value >= threshold, criterion not met when value < threshold.

Here are 4 molecules together with their reported answers.
>  <molecule>
COC(=O)C[C@H]1O[C@]2(C(=O)N(C)c3ccccc32)[C@@H](C)[C@@H]1[Si](C)(C)F

>  <assignedCategory>
criterion met

$$$$
>  <molecule>
CC[C@@H]1C=C(C(=O)O)[C@H](c2ccc(Br)cc2)N1S(=O)(=O)c1ccc(C)cc1

>  <assignedCategory>
criterion met

$$$$
>  <molecule>
CCC[C@@H]1C[C@@]1(CCC)[C@@H](NS(=O)(=O)c1cccc2cccnc12)c1ccc(Cl)cc1

>  <assignedCategory>
criterion not met

$$$$
>  <molecule>
O=C(NCCN1CCOCC1)[C@@H]1c2ccccc2C(=O)N(C2CCCCC2)[C@H]1c1ccc(CO)cc1

>  <assignedCategory>
criterion not met

$$$$

Would you say `O=C1O[C@@H](c2ccccc2)[C@@H](c2ccccc2)N2[C@@H](c3ccccc3OCCO)[C@]3(C(=O)Nc4ccc(C#CC5=CCCCC5)cc43)[C@@H](C(=O)N3CCCCCCC3)[C@H]12` shows composite z-score at minimum 0.1?
criterion met

Would you say CC1CC/C=C\[C@H]2OC34C=CCN(C(C)(C)C)C(=O)[C@H]3N(C(C)CO)C(=O)[C@@H]4C2C(=O)O1 (stereo partly specified) shows composite z-score at minimum 0.1?
criterion not met

Would you say `COc1ccc([Si](C)(C)[C@H]2[C@H](CCO)O[C@@]3(C(=O)N(Cc4ccc(N(C=O)c5ccccc5)cc4)c4ccccc43)[C@@H]2C)cc1` shows composite z-score at minimum 0.1?
criterion not met

Would you say `CO[C@H]1O[C@H](CO)[C@@H](OC(=O)Nc2ccccc2)[C@H](OC(=O)Nc2ccccc2)[C@@H]1OC(=O)Nc1ccccc1` shows composite z-score at minimum 0.1?
criterion met

Would you say `COCCOC(=O)N1C(=O)[C@@]2(c3cc(C#CC4(O)CCCCCC4)ccc31)[C@H](c1ccccc1OCCO)N1[C@H](c3ccccc3)[C@H](c3ccccc3)OC(=O)[C@H]1[C@@H]2C(=O)N1CCN(c2ncccn2)CC1` shows composite z-score at minimum 0.1?
criterion met

Would you say `COc1ccc(-c2cc3c(c(-c4ccc(Oc5ccccc5)cc4)n2)[Si](C(C)C)(C(C)C)OC3)cn1` shows composite z-score at minimum 0.1?
criterion not met

Would you say `C=CCNC(=O)[C@@H]1[C@H]2C(=O)O[C@H](c3ccccc3)[C@H](c3ccccc3)N2[C@H](c2ccc(O)cc2)[C@@]12C(=O)N(C(=O)OCCOC)c1ccc(C#CCNC(N)=O)cc12` shows composite z-score at minimum 0.1?
criterion met
